src = ChEMBL document CHEMBL6134884

Target System: Voltage-gated inwardly rectifying potassium channel KCNH2 (Homo sapiens)
Sequence (Q12809 whole entry): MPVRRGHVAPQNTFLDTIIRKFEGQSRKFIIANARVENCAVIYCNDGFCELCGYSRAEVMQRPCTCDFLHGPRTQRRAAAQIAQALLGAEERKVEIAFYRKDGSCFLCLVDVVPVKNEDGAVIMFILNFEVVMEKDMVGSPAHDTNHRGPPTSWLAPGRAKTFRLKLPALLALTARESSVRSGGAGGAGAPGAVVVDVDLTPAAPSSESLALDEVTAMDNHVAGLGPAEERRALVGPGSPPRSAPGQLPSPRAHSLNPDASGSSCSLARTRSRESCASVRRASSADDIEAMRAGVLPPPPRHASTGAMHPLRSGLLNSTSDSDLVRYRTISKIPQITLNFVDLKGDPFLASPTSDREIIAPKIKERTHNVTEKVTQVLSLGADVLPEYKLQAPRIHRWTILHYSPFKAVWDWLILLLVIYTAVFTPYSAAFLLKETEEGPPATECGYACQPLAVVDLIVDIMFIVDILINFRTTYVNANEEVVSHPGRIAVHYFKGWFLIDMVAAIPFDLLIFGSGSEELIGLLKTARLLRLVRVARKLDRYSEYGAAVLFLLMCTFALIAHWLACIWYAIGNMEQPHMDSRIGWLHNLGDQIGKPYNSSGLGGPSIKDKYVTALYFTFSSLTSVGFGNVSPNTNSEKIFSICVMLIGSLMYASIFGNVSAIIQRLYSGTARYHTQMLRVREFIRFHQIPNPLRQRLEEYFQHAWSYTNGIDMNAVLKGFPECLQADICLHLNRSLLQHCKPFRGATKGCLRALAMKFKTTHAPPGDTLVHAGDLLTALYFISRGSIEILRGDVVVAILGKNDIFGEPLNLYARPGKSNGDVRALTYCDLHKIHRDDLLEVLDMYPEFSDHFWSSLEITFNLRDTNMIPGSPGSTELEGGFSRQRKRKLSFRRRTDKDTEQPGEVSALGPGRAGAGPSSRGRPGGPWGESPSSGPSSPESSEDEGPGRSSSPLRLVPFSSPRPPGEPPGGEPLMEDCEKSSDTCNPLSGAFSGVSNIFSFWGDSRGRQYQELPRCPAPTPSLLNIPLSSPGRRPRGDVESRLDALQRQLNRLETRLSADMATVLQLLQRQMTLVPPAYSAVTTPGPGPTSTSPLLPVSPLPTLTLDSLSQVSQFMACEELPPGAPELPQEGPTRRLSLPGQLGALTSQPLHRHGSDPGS
Assay Protocol: Inhibition of hERG by Q-patch clamp method
Measured Parameter: IC50 (µM)

| Entry Smiles | Measured Parameter | Endpoint Value |
| --- | --- | --- |
| C[C@H]1CCCN1C(=O)c1nc(C(=O)NCC(C)(C)O)sc1-c1ccc(C(O)(C(F)(F)F)C(F)(F)F)c(Cl)c1Cl | IC50 | 29.5 |

----------
Target System: Nuclear receptor ROR-gamma (Homo sapiens)
Sequence (P51449 whole entry): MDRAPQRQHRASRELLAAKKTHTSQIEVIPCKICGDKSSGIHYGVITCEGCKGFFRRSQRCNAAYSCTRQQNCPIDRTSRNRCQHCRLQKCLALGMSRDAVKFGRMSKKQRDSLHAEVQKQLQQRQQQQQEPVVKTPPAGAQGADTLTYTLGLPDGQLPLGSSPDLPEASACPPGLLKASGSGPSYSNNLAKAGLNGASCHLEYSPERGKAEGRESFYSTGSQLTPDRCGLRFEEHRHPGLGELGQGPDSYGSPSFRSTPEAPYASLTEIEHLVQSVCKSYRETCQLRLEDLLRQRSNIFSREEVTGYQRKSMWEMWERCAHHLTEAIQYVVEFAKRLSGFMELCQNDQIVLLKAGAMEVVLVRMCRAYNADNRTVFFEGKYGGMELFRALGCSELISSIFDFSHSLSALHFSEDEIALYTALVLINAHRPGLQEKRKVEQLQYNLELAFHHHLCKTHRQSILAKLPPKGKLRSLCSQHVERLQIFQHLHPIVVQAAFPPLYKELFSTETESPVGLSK
Reported Kd by item:

| Entry Smiles | Unit String | Kd |
| --- | --- | --- |
| C[C@H]1CCCN1C(=O)c1nc(C(=O)NCC(C)(C)O)sc1-c1ccc(C(O)(C(F)(F)F)C(F)(F)F)cc1Cl | pM | 630 |
| C[C@H]1CCCCN1C(=O)c1nc(C(=O)NCC(C)(C)O)sc1-c1ccc(C(O)(C(F)(F)F)C(F)(F)F)cc1Cl | pM | 58 |
| CN(C(=O)c1nc(C(=O)NCC(C)(C)O)sc1-c1ccc(C(O)(C(F)(F)F)C(F)(F)F)c(Cl)c1Cl)C1CCC1 | pM | 400 |
| Cc1cc(C(O)(C(F)(F)F)C(F)(F)F)ccc1-c1sc(C(=O)NCC(C)(C)O)nc1C(=O)N1CCCC[C@@H]1C | pM | 250 |
